Test system: HS 578T breast
Assay Details: NCI tumour cell line growth inhibition, 48 h
Below, each entry is listed with its recorded GI50.

[in] Identify GI50 associated with the molecule CC1(C)CC(=O)C2=C(C1)NC(SSC1=C(C#N)C(c3ccccc3)C3=C(CC(C)(C)CC3=O)N1)=C(C#N)C2c1ccccc1 (centres undefined)
[out] 30.5 µg/mL

[in] Please report GI50 for the following molecule: `N#C/C(=C\c1c(-c2ccccc2)[nH]c2ccccc12)C(=O)c1ccc(Cl)cc1`
[out] 1.56 µM

More entries:
[in] Recall and state the measured GI50 for `C[C@H]1[C@H](OC(=O)CCC(=O)O)O[C@@H]2O[C@]3(C)CC[C@H]4[C@H](C)CC[C@@H]1[C@@]24OO3` .
[out] 0.986 µM

[in] Given the molecule `COc1ccc(-c2cc(-c3ccc(Nc4nc(Nc5ccc(Cl)cc5)nc(Nc5ccc(Cl)cc5)n4)cc3)nc(N)c2C#N)cc1` , write its reported GI50.
[out] 1.48 µM

[in] Name the recorded GI50 of the molecule listed here: CCCCCCCCCCCCCCCCCCNC(=O)[C@H]1CSC(c2ccc(OC)c(F)c2)N1 (some centres undefined)
[out] 4.29 µM

[in] Determine from records and report GI50 for `Cc1ccc(-c2c(C#N)c(N)nc(N3CCOCC3)c2C#N)o1`
[out] 39.2 µM

Numbers sourced from PubChem BioAssay (NCI).
